Just for reference, patent US20250152746A1 is where these values come from.

Exercise: for every item that follows, state its recorded Cyno Primary Hepatocyte Editing % 100.
Test system: PCSK9 gene
procedure-summary: PCSK9 gRNA/SpCas9 editing in primary cynomolgus hepatocytes (Tables 2, 22)
Assay type: cell-based, cynomolgus monkey
conditions: 100 ng/RNA/mL; SpCas9 mRNA MS002 1:1 by weight
In the oligonucleotide strings, read from the 5' end, every base follows the letter of its sugar. An asterisk marks phosphorothioate; unmarked linkages are phosphodiester. Other units and linkages are bracketed, terminal groups are in braces. A string of capitals states the bases alone. m = 2'-O-methyl; r = 2'-OH (RNA)
# value in %; strip the unit string

Answer with reported Cyno Primary Hepatocyte Editing % 100 of GA176: PCSK9 gRNA; protospacer AGCACCACCACGTAGGTGCC (SEQ ID NO: 170) (nucleic acid, sugars from the 5' end m3 r94 m3, linkages s3 o93 s3 (s phosphorothioate, o phosphodiester), T or U not given here) guide: AGCACCACCACGUAGGUGCCGUUUUAGAGCUAGAAAUAGCAAGUUAAAAUAAGGCUAGUCCGUUAUCAACUUGAAAAAGUGGCACCGAGUCGGUGCUUUU
2.11

Answer with reported Cyno Primary Hepatocyte Editing % 100 of GA209: PCSK9 gRNA; protospacer CTTGGCAGTTGAGCACGCGC (SEQ ID NO: 203) (nucleic acid, sugars from the 5' end m3 r94 m3, linkages s3 o93 s3 (s phosphorothioate, o phosphodiester), T or U not given here) guide: CUUGGCAGUUGAGCACGCGCGUUUUAGAGCUAGAAAUAGCAAGUUAAAAUAAGGCUAGUCCGUUAUCAACUUGAAAAAGUGGCACCGAGUCGGUGCUUUU
3.59

Answer with reported Cyno Primary Hepatocyte Editing % 100 of GA196: PCSK9 gRNA; protospacer GAGTGACCACCGGGAAATCG (SEQ ID NO: 190) (nucleic acid, sugars from the 5' end m3 r94 m3, linkages s3 o93 s3 (s phosphorothioate, o phosphodiester), T or U not given here) guide: GAGUGACCACCGGGAAAUCGGUUUUAGAGCUAGAAAUAGCAAGUUAAAAUAAGGCUAGUCCGUUAUCAACUUGAAAAAGUGGCACCGAGUCGGUGCUUUU
1.09

Answer with reported Cyno Primary Hepatocyte Editing % 100 of GA167: PCSK9 gRNA; protospacer TCAGCTCCAGGCGGTCCTGG (SEQ ID NO: 161) (nucleic acid, sugars from the 5' end m3 r94 m3, linkages s3 o93 s3 (s phosphorothioate, o phosphodiester), T or U not given here) guide: UCAGCUCCAGGCGGUCCUGGGUUUUAGAGCUAGAAAUAGCAAGUUAAAAUAAGGCUAGUCCGUUAUCAACUUGAAAAAGUGGCACCGAGUCGGUGCUUUU
11.98

Answer with reported Cyno Primary Hepatocyte Editing % 100 of GA191: PCSK9 gRNA; protospacer GCCCCATGTCGACTACATCG (SEQ ID NO: 185) (nucleic acid) guide: mG*mC*mC*rCrCrArUrGrUrCrGrArCrUrArCrArUrCrGrGrUrUrUrUrArGrArGrCrUrArGrArArArUrArGrCrArArGrUrUrArArArArUrArArGrGrCrUrArGrUrCrCrGrUrUrArUrCrArArCrUrUrGrArArArArArGrUrGrGrCrArCrCrGrArGrUrCrGrGrUrGrCrU*mU*mU*mU
5.46

Answer with reported Cyno Primary Hepatocyte Editing % 100 of GA162: PCSK9 gRNA; protospacer GGACGGCGACTACGAGGAGC (SEQ ID NO: 156) (nucleic acid) guide: mG*mG*mA*rCrGrGrCrGrArCrUrArCrGrArGrGrArGrCrGrUrUrUrUrArGrArGrCrUrArGrArArArUrArGrCrArArGrUrUrArArArArUrArArGrGrCrUrArGrUrCrCrGrUrUrArUrCrArArCrUrUrGrArArArArArGrUrGrGrCrArCrCrGrArGrUrCrGrGrUrGrCrU*mU*mU*mU
1.62
